Measured values drawn from the supplement of paper PMC7366291 for this set.

# fraction of imaged embryos annotated as normal kidney per entry
Test system: Danio rerio Tg(wt1b:EGFP) embryo, pronephros
Assay: fraction of imaged embryos annotated as normal kidney; higher = less nephrotoxic; extreme values may be limits of the assay
Conditions: 25 µM; exposure: 24-48 hpf
Counter-ions that a name gives are not always drawn.
quantity: fraction of imaged embryos annotated as normal kidney

| compound | measurement |
| --- | --- |
| OC(CCN1CCCC1)(c1ccccc1)C1CCCCC1 (stereo not drawn) [Procyclidine hydrochloride] | 0.833 |
| NC(=O)NC1NC(=O)NC1=O (stereo not drawn) [Allantoin] | 0.917 |
| O=C1CC2(CCCC2)CC(=O)N1CCCCN1CCN(c2ncccn2)CC1 [Buspirone hydrochloride] | 0.75 |
| CC1(C)O[C@@H]2C[C@H]3[C@@H]4C[C@H](F)C5=CC(=O)C=C[C@]5(C)[C@@]4(F)[C@@H](O)C[C@]3(C)[C@]2(C(=O)CO)O1 [Fluocinolone acetonide] | 0.0833 |
| COc1ccc2cc([C@H](C)C(=O)O)ccc2c1 [Naproxen] | 0.167 |
| CC(=O)[C@H]1CC[C@H]2[C@@H]3CCC4=CC(=O)CC[C@]4(C)[C@H]3CC[C@]12C [Progesterone] | 0.364 |
| NS(=O)(=O)c1cc2c(cc1Cl)N=CNS2(=O)=O [Chlorothiazide] | 0.75 |
| CN1CCC(=C2c3ccccc3C=Cc3ccccc32)CC1 [Cyproheptadine hydrochloride] | 0.667 |
